The reported measurements were obtained from paper PMC9975495.

Assay explanation: Pharmacokinetic study, plasma by RP-HPLC
Format: in vivo, Male Albino Wister rats
Experimental parameters: rats, 20 mg/kg intravenous

Compound	t1/2 (h)
COc1cc2nccc(Oc3ccc(NC(=O)C4(C(=O)Nc5ccc(F)cc5)CC4)cc3)c2cc1OC [CNB, Cabozantinib]	5.21

###

Assay explanation: Pharmacokinetic study, plasma by RP-HPLC
Type: in vivo, Male Albino Wister rats
Experimental parameters: male, Albino Wister, rat, plasma; rats, 20 mg/kg intravenous

Compound	clearance / mL/min
COc1cc2nccc(Oc3ccc(NC(=O)C4(C(=O)Nc5ccc(F)cc5)CC4)cc3)c2cc1OC [CNB, Cabozantinib]	2.08

###

Assay explanation: Pharmacokinetic study, plasma by RP-HPLC
Type: in vivo, Male Albino Wister rats
Experimental parameters: male, Albino Wister, rat, plasma; rats, 20 mg/kg intravenous

Compound	Display unit	Vd
COc1cc2nccc(Oc3ccc(NC(=O)C4(C(=O)Nc5ccc(F)cc5)CC4)cc3)c2cc1OC [CNB, Cabozantinib]	L	1.52
